Measured apparent KD of K4 kissing-loop reporter values are reported for all entries that follow.
# Test system: K4 kissing-loop RNA reporter;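 further: bound reporter read as fluorescence of individual clusters on recovered sequencing chips by microscopy, with normalized cluster intensities fitted with a binding model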
# measurement.notes: apparent KD of K4 kissing-loop reporter; higher = weaker reporter binding
# particulars: Eterna round: R107; input ligand: arginine 13.2 mM
Answer with a number only, understood to be in nM.

GUCCGGAAGGCGGCUUCACGACCGUGGUGGGAGGAUAUGUCUAAGGACAGAAGGCCCAGUGAUGUUGGGCUUUAGGAGAGCCAUA [Ragele] | 128

UUUUAAAUAUCUGAUACCAGAGAAAAUAUAUGUAGUGAUGUUAUAUACAAAAUAAAUAAGCUCCCUUGGCAGCAGUAUUAAUUUU [AstrosExyTheB#1] has a reported apparent KD of K4 kissing-loop reporter of 622

So for GCUAUGGUAGGAAGGAGCGCUUAUUUAUUAAUAAGAGUGAUGUUCGAUAGUAGAUAUUUAUAGCAGGUAGGUCGCCUACUAUAGC [Arginine B K4 12] , the logged apparent KD of K4 kissing-loop reporter turned out to be 196

// field: apparent KD of K4 kissing-loop reporter; key: GAUUUAGAGGCGGCCGCCACUAGUGAUGUUAGUGAUGUUUGAUAGGGAAUAUAUCAGCGAGUAGAUAGGACCGGGCCAGAUGGAG [gtggbmullin] ; value = 183

Value of measured apparent KD of K4 kissing-loop reporter for the entry UAAGAGGACCACUGCAAAAGUCCUCGAAUACGAGGACCGGUACGGCCGCCACUCGAUAAUUUGCAGUGAUGUUGCAAGUAAGAAU [BrourdMod 4 - Jieux - Same State Tryptophan A] : 158

UAAAUAAUAAAACGAGUGAUGUUCGACGAUACCAGCCUCGAUAGAGGCCCUUGGCAGCGUAAAUGAUCACAAAGCCAAGGUAUAA [#01 K4 Theophylline A Exclusion] yielded apparent KD of K4 kissing-loop reporter of 183

====

# System: MS2 coat protein
# measurement.notes: apparent KD of MS2 coat protein; designed switch direction (-1 OFF switch, 1 ON switch): -1; higher = weaker reporter binding
# particulars: input ligand: none
Assign class by apparent KD of MS2 coat protein: not lower than 30 nM means 1; lower than 30 nM means -1.

Before answering, review these 3 worked examples.
CUCAUGCCUGAGGAUAUGCUGUACAAAAGUACUGCAGAAGGUGGAACAUGAGGAUCACCCAUGUGGCGAAAGCC [Omei Ex G4] (Eterna round: R97, puzzle: Exclusion 6) | 1
UAUAUAUAGUAAGGAUAUGUAUUUAUUUUAUAGACAGAAGGUACUGACAUGAGGAUCACCCAUGUUUUAGUGUGGGCAUGUAGA [JMF's solution 27] (Eterna round: R96, puzzle: Exclusion NG 1) | 1
UAGUACAGAGGAUAUACAUGAGGAUCACCCAUGUGUUUCAGCUAGGAGACUAGCGAAAGUAGAAGGCUGUACUA [salish99_ex3_r4_008] (Eterna round: R97, puzzle: Exclusion 3) | -1

# next sequence below
Challenge: Record AUAAUGUGAGGAUAUCACGGCCCGAUGAGUACGGUAAACGAUGAGAAGGCACAUGAGGAUCACCCAUGUUCCUG [EX4 A.15] (Eterna round: R97, puzzle: Exclusion 4) ; criterion: apparent KD of MS2 coat protein no lower than 30 nM. Met?
Response given: -1

====

The entries below are paired with their reported apparent KD of MS2 coat protein.
# System: MS2 coat protein
# measurement.notes: apparent KD of MS2 coat protein; designed switch direction (-1 OFF switch, 1 ON switch): -1; higher = weaker reporter binding
# particulars: input ligand: none
Express it in nM; write the number only.

Example entries begin here.
UCGCAGUUAGGAUAUACAUGAGGAUCACCCAUGUGGCUCCGGACCGGCAACGAAUCACGUAGAAGGGACUGCAG [Eternabot (Original) Solution 24] (Eterna round: R97, puzzle: Exclusion 3) | 16.8
AAUGUUUGAUACCUUUAAUACAUGAGGAUCACCCAUGUUAUCGAGGAUAUGUAGAUGAAAUGAGAACAGAAGGCGAAGUAAGAG [JR_ExcNG3_Sub098] (Eterna round: R96, puzzle: Exclusion NG 3) | 24.4
GUCAGCUCGUCAGGAUAUGCACAUGAGGAUCACCCAUGUAAGAUCAAGCUGCUUCGGCAGCAAGUGCAGAAGGGACGAGCUGAC [ENG2/9-B1] (Eterna round: R96, puzzle: Exclusion NG 2) | 140

# apparent KD of MS2 coat protein of GCACUGCGAGGAUAUACAUGAGGAUCACCCAUGUGUCGGCAGCCAUGGUAGUACAAAUGUAGAAGGCGCGUAAA [EX3 #50] (Eterna round: R97, puzzle: Exclusion 3) = 587

The sequence listed as ACCCUGUGAGGAUAUUGUGAGCAGACACUUGAGUGCAAUCAUAAGAAGGUACAUGAGGAUCACCCAUGUGAAAC [Eternabot (L1) Solution 90] (Eterna round: R97, puzzle: Exclusion 4) shows apparent KD of MS2 coat protein equal to 38.7
